Exercise: for every item that follows, state its recorded Ki.
Target: Carbonic anhydrase 4 (Bos taurus)
Sequence (Q95323 whole entry): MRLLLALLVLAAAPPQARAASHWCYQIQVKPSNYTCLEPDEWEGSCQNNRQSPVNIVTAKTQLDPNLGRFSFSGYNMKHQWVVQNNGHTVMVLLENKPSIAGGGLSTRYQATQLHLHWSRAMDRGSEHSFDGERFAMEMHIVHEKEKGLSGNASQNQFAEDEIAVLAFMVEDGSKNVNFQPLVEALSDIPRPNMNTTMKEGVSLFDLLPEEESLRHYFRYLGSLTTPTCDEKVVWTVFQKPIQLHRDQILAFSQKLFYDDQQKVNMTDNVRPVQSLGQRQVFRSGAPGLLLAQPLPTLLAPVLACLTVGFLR
Answers are plain numbers, in nM.

C[C@H](CCC(=O)OCCc1ccc(S(N)(=O)=O)cc1)[C@H]1CC[C@H]2[C@@H]3[C@H](O)C[C@@H]4C[C@H](O)CC[C@]4(C)[C@H]3C[C@H](O)[C@]12C : 300
C[C@H](CCC(=O)Nc1c(S(N)(=O)=O)cc(S(N)(=O)=O)c(Cl)c1Cl)[C@H]1CC[C@H]2[C@@H]3[C@H](O)C[C@@H]4C[C@H](O)CC[C@]4(C)[C@H]3C[C@H](O)[C@]12C : 97

Now consider a different compound.
Query: Could you tell me which Ki is on file for C[C@H](CCC(=O)Nc1ccc(S(N)(=O)=O)cc1Cl)[C@H]1CC[C@H]2[C@@H]3[C@H](O)C[C@@H]4C[C@H](O)CC[C@]4(C)[C@H]3C[C@H](O)[C@]12C ?
Response: 168

###

For each entry below, report its pKi value.
Biological target: Carbonic anhydrase 4 (Bos taurus)
Sequence (Q95323 whole entry): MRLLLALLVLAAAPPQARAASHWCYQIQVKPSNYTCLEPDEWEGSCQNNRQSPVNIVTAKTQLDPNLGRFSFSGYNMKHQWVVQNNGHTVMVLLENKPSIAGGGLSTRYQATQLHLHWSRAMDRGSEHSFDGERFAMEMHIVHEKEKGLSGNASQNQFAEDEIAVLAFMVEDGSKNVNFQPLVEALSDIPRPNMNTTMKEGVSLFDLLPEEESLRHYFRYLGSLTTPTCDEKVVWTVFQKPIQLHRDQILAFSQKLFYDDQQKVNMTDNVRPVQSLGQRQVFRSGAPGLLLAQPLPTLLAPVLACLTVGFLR
Numbers only, as −log10 of the molar value.

C[C@H](CCC(=O)NCCC(=O)Nc1nnc(S(N)(=O)=O)s1)[C@H]1CC[C@H]2[C@@H]3CC[C@@H]4C[C@H](O)CC[C@]4(C)[C@H]3C[C@H](O)[C@]12C : 7.52

Batch request: pKi for each of the following compounds.
1. C[C@H](CCC(=O)Nc1ccc(S(N)(=O)=O)cc1Cl)[C@H]1CC[C@H]2[C@@H]3[C@@H](O)C[C@@H]4C[C@H](O)CC[C@]4(C)[C@H]3CC[C@]12C
2. C[C@H](CCC(=O)Nc1ccc(S(N)(=O)=O)cc1F)[C@H]1CC[C@H]2[C@@H]3[C@H](O)C[C@@H]4C[C@H](O)CC[C@]4(C)[C@H]3CC[C@]12C
3. C[C@H](CCC(=O)NCc1ccc(S(N)(=O)=O)cc1)[C@H]1CC[C@H]2[C@@H]3C(=O)C[C@@H]4CC(=O)CC[C@]4(C)[C@H]3CC(=O)[C@]12C
4. C[C@H](CCC(=O)Nc1ccccc1S(N)(=O)=O)[C@H]1CC[C@H]2[C@@H]3[C@@H](O)C[C@@H]4C[C@H](O)CC[C@]4(C)[C@H]3CC[C@]12C
5. C[C@H](CCC(=O)Nc1cc(Cl)c(S(N)(=O)=O)cc1S(N)(=O)=O)[C@H]1CC[C@H]2[C@@H]3CC[C@@H]4C[C@H](O)CC[C@]4(C)[C@H]3C[C@H](O)[C@]12C

Response:
7.52
6.89
7.40
6.30
6.92

###

Reported pKi values, Carbonic anhydrase 1 (Homo sapiens, UniProt P00915).
Give bare numbers, as −log10 of the molar value.

Would you please look over these solved cases?
C[C@H](CCC(=O)Nc1ccc(S(N)(=O)=O)cc1F)[C@H]1CC[C@H]2[C@@H]3C(=O)C[C@@H]4CC(=O)CC[C@]4(C)[C@H]3CC(=O)[C@]12C : 6.68
C[C@H](CCC(=O)NNc1ccc(S(N)(=O)=O)cc1)[C@H]1CC[C@H]2[C@@H]3C(=O)C[C@@H]4CC(=O)CC[C@]4(C)[C@H]3CC(=O)[C@]12C : 4.89

Provide pKi values for the following items, in order.
1. C[C@H](CCC(=O)Nc1cc(Cl)c(S(N)(=O)=O)cc1S(N)(=O)=O)[C@H]1CC[C@H]2[C@@H]3CC[C@@H]4C[C@H](O)CC[C@]4(C)[C@H]3C[C@H](O)[C@]12C
2. C[C@H](CCC(=O)OCc1ccc(S(N)(=O)=O)cc1)[C@H]1CC[C@H]2[C@@H]3C(=O)C[C@@H]4CC(=O)CC[C@]4(C)[C@H]3CC(=O)[C@]12C

Response:
1. 6.65
2. 6.35

# map each compound to its pKi
1. C[C@H](CCC(=O)OCc1ccc(S(N)(=O)=O)cc1)[C@H]1CC[C@H]2[C@@H]3[C@H](O)C[C@@H]4C[C@H](O)CC[C@]4(C)[C@H]3CC[C@]12C
2. C[C@H](CCC(=O)Nc1ccc(S(N)(=O)=O)cc1Br)[C@H]1CC[C@H]2[C@@H]3CC[C@@H]4C[C@H](O)CC[C@]4(C)[C@H]3C[C@H](O)[C@]12C
3. C[C@H](CCC(=O)Nc1ccc(S(N)(=O)=O)cc1Cl)[C@H]1CC[C@H]2[C@@H]3CC[C@@H]4C[C@H](O)CC[C@]4(C)[C@H]3C[C@H](O)[C@]12C

Response:
1. 5.91
2. 6.44
3. 6.05

Return reported pKi values for all items listed beneath this line.
1. C[C@H](CCC(=O)Nc1cc(Cl)c(S(N)(=O)=O)cc1S(N)(=O)=O)[C@H]1CC[C@H]2[C@@H]3[C@H](O)C[C@@H]4C[C@H](O)CC[C@]4(C)[C@H]3CC[C@]12C
2. C[C@H](CCC(=O)Nc1ccc(S(N)(=O)=O)cc1Cl)[C@H]1CC[C@H]2[C@@H]3C(=O)C[C@@H]4CC(=O)CC[C@]4(C)[C@H]3CC(=O)[C@]12C
3. C[C@H](CCC(=O)NCCC(=O)Nc1nnc(S(N)(=O)=O)s1)[C@H]1CC[C@H]2[C@@H]3CC[C@@H]4C[C@H](O)CC[C@]4(C)[C@H]3CC[C@]12C
4. C[C@H](CCC(=O)OCCOc1ccc2nc(S(N)(=O)=O)sc2c1)[C@H]1CC[C@H]2[C@@H]3C(=O)C[C@@H]4CC(=O)CC[C@]4(C)[C@H]3CC(=O)[C@]12C
5. C[C@H](CCC(=O)Nc1ccc(S(N)(=O)=O)cc1)[C@H]1CC[C@H]2[C@@H]3[C@H](O)C[C@@H]4C[C@H](O)CC[C@]4(C)[C@H]3CC[C@]12C

Response:
6.52
6.70
6.70
7.52
4.70

Give pKi for each of the items listed below.
1. C[C@H](CCC(=O)Nc1cccc(S(N)(=O)=O)c1)[C@H]1CC[C@H]2[C@@H]3[C@H](O)C[C@@H]4C[C@H](O)CC[C@]4(C)[C@H]3C[C@H](O)[C@]12C
2. C[C@H](CCC(=O)NNc1ccc(S(N)(=O)=O)cc1)[C@H]1CC[C@H]2[C@@H]3[C@H](O)C[C@@H]4C[C@H](O)CC[C@]4(C)[C@H]3CC[C@]12C
3. C[C@H](CCC(=O)Nc1ccc(S(N)(=O)=O)cc1Br)[C@H]1CC[C@H]2[C@@H]3[C@H](O)C[C@@H]4C[C@H](O)CC[C@]4(C)[C@H]3C[C@H](O)[C@]12C

Response:
1. 4.64
2. 4.56
3. 6.22

Below are some compounds; for each one, tell me its pKi.
1. C[C@H](CCC(=O)Nc1nnc(S(N)(=O)=O)s1)[C@H]1CC[C@H]2[C@@H]3C(=O)C[C@@H]4CC(=O)CC[C@]4(C)[C@H]3CC(=O)[C@]12C
2. C[C@H](CCC(=O)Nc1ccc(S(N)(=O)=O)cc1I)[C@H]1CC[C@H]2[C@@H]3CC[C@@H]4C[C@H](O)CC[C@]4(C)[C@H]3CC[C@]12C
3. C[C@H](CCC(=O)Nc1ccccc1S(N)(=O)=O)[C@H]1CC[C@H]2[C@@H]3[C@H](O)C[C@@H]4C[C@H](O)CC[C@]4(C)[C@H]3CC[C@]12C
4. C[C@H](CCC(=O)Nc1ccc(S(N)(=O)=O)cc1I)[C@H]1CC[C@H]2[C@@H]3[C@H](O)C[C@@H]4C[C@H](O)CC[C@]4(C)[C@H]3CC[C@]12C
5. C[C@H](CCC(=O)Nc1c(S(N)(=O)=O)cc(S(N)(=O)=O)c(Cl)c1Cl)[C@H]1CC[C@H]2[C@@H]3[C@H](O)C[C@@H]4C[C@H](O)CC[C@]4(C)[C@H]3C[C@H](O)[C@]12C

Response:
7.39
6.92
4.66
6.28
6.40
